Molecular target: T1, MAGI3-2 (human, UniProt Q5TCQ9 410-492)
T1 construct: PDZ domain number 2 of human MAGI3; also called MAGI3 PDZ dom 2; source: E. coli, in crude cell lysate; not shown: His, N-terminal, kept
T1 sequence (Q5TCQ9 410-492): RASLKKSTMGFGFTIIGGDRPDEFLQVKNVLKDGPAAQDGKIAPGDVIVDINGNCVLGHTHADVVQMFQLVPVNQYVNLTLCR
Assay: holdup assay; biotinylated PBM peptide saturating streptavidin resin (biotin resin as reference); tag-PDZ at 4 uM in crude E. coli lysate, 15 min, filtration, free tag-PDZ by capillary electrophoresis; singlicate; BI cut-off 0.20; BI converted into KD with the peptide concentration back-calculated from FP
Details: one partner purified
Where no end group is shown, it is not given here. The star is where a group is joined. Biotin = O=C1N[C@H]2[C@H](CS[C@H]2CCCCC(=O)*)N1; TTDS = NCCCOCCOCCOCCCNC(=O)CCC(=O)*
Reported pKd values are given for each entry in this list.
Quick note: pKd values are minus log10 of concentrations in mol/L.

Binder	pKd
{Biotin-TTDS}-DEDQHTQITRV (peptide, UniProt P60484 393-403, looked up, also called K402R mutant; source: synthetic peptide (Chemical Peptide Synthesis Service of the IGBMC, Fmoc)) [PTEN_KR]	4.54

Specify pKd for {Biotin-TTDS}-PFDEDQHTQITKV (peptide, UniProt P60484 391-403, looked up, also called 13-mer PTEN peptide; extended wild-type peptide; source: synthetic peptide, bought: JPT Innovative Peptide Solutions (70%-80% purity)) [PTEN_13] and stop.
4.68
